meta.source: ChEMBL document CHEMBL1140541

Biological target: Macrophage colony-stimulating factor 1 receptor (Homo sapiens)
Sequence (P07333 whole entry): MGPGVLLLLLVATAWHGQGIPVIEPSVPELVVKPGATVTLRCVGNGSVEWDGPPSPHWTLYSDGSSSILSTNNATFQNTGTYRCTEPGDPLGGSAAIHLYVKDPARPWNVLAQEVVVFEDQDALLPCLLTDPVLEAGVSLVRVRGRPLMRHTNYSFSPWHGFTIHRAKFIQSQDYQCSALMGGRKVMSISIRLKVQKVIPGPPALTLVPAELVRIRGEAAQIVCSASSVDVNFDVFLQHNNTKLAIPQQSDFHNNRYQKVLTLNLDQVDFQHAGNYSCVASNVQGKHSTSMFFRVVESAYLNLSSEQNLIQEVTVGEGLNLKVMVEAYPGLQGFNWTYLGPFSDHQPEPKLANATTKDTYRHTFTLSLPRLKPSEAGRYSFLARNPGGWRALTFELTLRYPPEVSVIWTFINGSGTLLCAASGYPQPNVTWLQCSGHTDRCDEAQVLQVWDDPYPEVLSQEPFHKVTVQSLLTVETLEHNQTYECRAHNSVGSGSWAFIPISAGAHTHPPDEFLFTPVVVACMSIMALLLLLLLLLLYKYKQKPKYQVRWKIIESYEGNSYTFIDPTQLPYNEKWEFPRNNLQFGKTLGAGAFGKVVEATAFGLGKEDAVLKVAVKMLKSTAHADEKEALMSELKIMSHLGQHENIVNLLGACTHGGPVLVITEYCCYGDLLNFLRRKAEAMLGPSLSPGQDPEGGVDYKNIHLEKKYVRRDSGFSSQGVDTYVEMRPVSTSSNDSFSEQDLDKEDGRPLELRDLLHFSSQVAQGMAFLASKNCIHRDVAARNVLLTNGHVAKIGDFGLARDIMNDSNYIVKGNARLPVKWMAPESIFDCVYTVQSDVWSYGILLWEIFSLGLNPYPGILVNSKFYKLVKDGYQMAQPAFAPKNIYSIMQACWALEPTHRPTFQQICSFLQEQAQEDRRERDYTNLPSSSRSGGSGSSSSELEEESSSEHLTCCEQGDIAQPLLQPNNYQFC
Assay: Inhibition of ATP-induced autophosphorylation of cFMS tyrosine kinase
pIC50: −log10 of the molar value.
readout.label: pIC50

Below: 2 compounds and their reported pIC50.
- compound: "N#Cc1ccc(C(=O)Nc2cc(N3CCCCC3)ccc2N2CCCCC2)o1"
  measured.value: 7.77
- compound: "CS(=O)(=O)NCc1ccc(N2CCCCC2)c(NC(=O)c2ccc(C#N)o2)c1"
  measured.value: 7.43

1 = O=C(Nc1ccccc1N1CCCCC1)c1ccc(Cl)o1
2 = CC1CCN(c2ccccc2NC(=O)c2ccc([N+](=O)[O-])o2)CC1
3 = N#Cc1ccc(C(=O)Nc2cc(CO)ccc2N2CCCCC2)o1
4 = CC1CCCN(c2ccccc2NC(=O)c2ccc([N+](=O)[O-])o2)C1 (stereo unspecified)
**Q:** Which order do these items take when sorted by rising pIC50? List them. Response format: the labels, sorted as the prompt asks.
**A:** 1, 4, 2, 3
